Record form. Attribute: normalised response. Fill in for each entry.
Test system: CAL-85-1
Assay: normalised response (% of control), CellTox Green; higher = less cell death (100 = DMSO, 0 = benzethonium chloride kill control)
Conditions: incubation time: 72 h
Give bare numbers, in %.

> print(dat)
                                   compound  numeric.result
1  CCCS(=O)(=O)Nc1ccc(F)c(C(=O)c2c[nH]c3ncc(-c4ccc(Cl)cc4)cc23)c1F [Vemurafenib] (10000 nM)             109
2  Cc1cnc(NC(=O)Nc2cc(Br)c(C)cc2OC[C@@H]2CNCCO2)cn1 [Rabusertib] (1000 nM)            59.3
3  C[C@H]1C[C@@H]2[C@H]([C@@H](O)C[C@@]3(C)[C@H]2CC[C@]3(O)C(=O)CO)[C@@]2(C)C=CC(=O)C=C12 [Methylprednisolone] (100 nM)             102
4  CCN(CC)CCCC(C)Nc1c2ccc(Cl)cc2nc2ccc(OC)cc12 (stereo not drawn) [Mepacrine] (50000 nM)             101
5  O=C(Cc1ccc(-c2ccc(OCCN3CCOCC3)cc2)cn1)NCc1ccccc1 [KX2-391] (100 nM)            30.9
6  CCc1cncnc1N1CCN(Cc2nc3ccc(C(F)(F)F)cc3[nH]2)CC1 (100 nM)            99.3
7  O=C(/C=C/c1cccnc1)NCCCCC1CCN(C(=O)c2ccccc2)CC1 [Daporinad] (1000 nM)            93.5

Next up:
Query: If you can, please state the reported normalised response value of C=CCc1cccc(/C=N/NC(=O)CN2CCN(Cc3ccccc3)CC2)c1O [PAC-1] (1000 nM) .
Result: 105
